# Test system: indomethacin induced gastric damage
# assay-explanation: Anti-ulcer activity: inhibition of indomethacin induced gastric damage in the rat (method of Elegbe)
# Format: in vivo
# experimental-setup: po, 5 h, 50 mg/kg (footnote *) orally, 30 minutes prior to and 2 hours after indomethacin (15 mg/kg s.c.)
quantity-measured: inhibition in vivo at 50 mg/kg (%)
Please reply with the bare figure in % and do not write the unit itself.

Solved entries:
INSERT INTO assay_data (smiles_str, measurement_target, measured_result) VALUES
  ('CO/N=C(\c1ccccc1)c1ccccn1', 'indomethacin induced gastric damage', 79),
  ('CO/N=C(\c1ccccc1)c1cccnc1', 'indomethacin induced gastric damage', 82),
  ('CCON=C(c1ccccc1)c1ccncc1', 'indomethacin induced gastric damage', 100);

// next entry
For indomethacin induced gastric damage, give inhibition in vivo at 50 mg/kg of the listed molecule: `CON=C(c1ccccc1)c1ccncc1` 86

====

# Tested on: gastric secretion
# assay-explanation: Effects on Gastric Secretion in the Pyloric Ligated Rat (method of Shay et al.)
# Type: in vivo
# experimental-setup: intraduodenal, 100 mg/kg i.d., 3 hours, read-out: % Inhibition, [H^+ ] (hydrogen ion concentration of gastric juice)
Record yes (1) whenever inhibition in vivo at 100 mg/kg is at 30% or higher; record no (0) when lower.

For orientation, consider the following solved cases.
INSERT INTO results (compound, class_assignment) VALUES
  ('CN(C)CCCON=C(c1ccccc1)c1ccncc1 [Compound 29]', 'yes (1)'),
  ('CCON=C(c1ccccc1)c1ccncc1 [Compound 21, phenyl 4-pyridinyl ketone, O-ethyl oxime]', 'no (0)');

Is inhibition in vivo at 100 mg/kg at least 30%? Consider CON=C(c1ccncc1)c1ccc(Cl)c(Cl)c1 [Compound 10] yes (1)

Reported inhibition in vivo at 100 mg/kg reaches at least 30% for CO/N=C(\c1ccccc1)c1ccncc1 [Compound 4] ? yes (1)

Hi team, for CO/N=C(\c1ccncc1)c1ccc(F)cc1 [Compound 8] , is the recorded inhibition in vivo at 100 mg/kg at or above 30%? no (0)

State whether the measured inhibition in vivo at 100 mg/kg reaches 30%, counting equality as reaching it, for CON=C(c1ccccc1)c1ccncc1 [Compound 1] yes (1)

Given CON=C(c1ccncc1)c1ccc(CO)cc1 [Compound 19] , state whether its inhibition in vivo at 100 mg/kg is at least 30%. yes (1)

Is inhibition in vivo at 100 mg/kg at least 30%? Consider CON=C(c1ccncc1)c1ccc(C)cc1 [Compound 6] yes (1)

====

# System: gastric secretion
# assay-explanation: Effects on Gastric Secretion in the Pyloric Ligated Rat (method of Shay et al.)
# Assay type: in vivo
# experimental-setup: intraduodenal, 100 mg/kg i.d., 3 hours, read-out: % Inhibition, [H^+ ] (hydrogen ion concentration of gastric juice)
Attribute: inhibition in vivo at 100 mg/kg
Write down the numeric answer in % and omit the unit.

INSERT INTO assay_data (compound, quantity_measured, measured_result) VALUES
  ('CN(C)CCCON=C(c1ccccn1)c1ccco1 [Compound 31]', 'inhibition in vivo at 100 mg/kg', 30),
  ('CON=C(Cc1ccccn1)c1ccccc1 [Compound 16]', 'inhibition in vivo at 100 mg/kg', 25),
  ('CON=C(c1ccsc1)c1ccccn1 [Compound 12]', 'inhibition in vivo at 100 mg/kg', 20);

Please report the measured inhibition in vivo at 100 mg/kg for CN(C)CCON=C(c1ccccc1)c1ccccn1 [Compound 24] 36

Give inhibition in vivo at 100 mg/kg for CON=C(c1ccccn1)c1ccccn1 [Compound 17, di-2-pyridinyl ketone, O-methyl oxime] 14

Give the reported inhibition in vivo at 100 mg/kg for this compound. CN(C)CCCON=C(c1ccccn1)c1cccs1 [Compound 30] 64

Output measured inhibition in vivo at 100 mg/kg for this item: CN(C)CCCON=C(c1ccccc1)c1ccccn1 [Compound 25] 65

Give me measured inhibition in vivo at 100 mg/kg, please, for this compound: CON=C(c1ccccn1)c1cccs1 [Compound 11] 36

Given the compound CO/N=C(\c1ccccc1)c1cccnc1 [Compound 3] , write its reported inhibition in vivo at 100 mg/kg. 50

Please look at this compound and report its inhibition in vivo at 100 mg/kg: CN(C)CCON=C(c1ccccc1)c1ccncc1 [Compound 28] 92

Please list inhibition in vivo at 100 mg/kg recorded for the compound CO/N=C(/c1ccccc1)c1cc[n+]([O-])cc1 [Compound 32] 32

In one line, give reported inhibition in vivo at 100 mg/kg of the entry CO/N=C(\c1ccccc1)c1ccccn1 [Compound 2] . 33
